For each of the binders below, state its IC50, Activin SMAD RGA.
# ASSAYED_TARGET: ActRIIA and ActRIIB (on TGFB/SMAD SBE Reporter HEK293 cells) (human)
# Sequence (chain, as listed by the source, chain 1 of 2): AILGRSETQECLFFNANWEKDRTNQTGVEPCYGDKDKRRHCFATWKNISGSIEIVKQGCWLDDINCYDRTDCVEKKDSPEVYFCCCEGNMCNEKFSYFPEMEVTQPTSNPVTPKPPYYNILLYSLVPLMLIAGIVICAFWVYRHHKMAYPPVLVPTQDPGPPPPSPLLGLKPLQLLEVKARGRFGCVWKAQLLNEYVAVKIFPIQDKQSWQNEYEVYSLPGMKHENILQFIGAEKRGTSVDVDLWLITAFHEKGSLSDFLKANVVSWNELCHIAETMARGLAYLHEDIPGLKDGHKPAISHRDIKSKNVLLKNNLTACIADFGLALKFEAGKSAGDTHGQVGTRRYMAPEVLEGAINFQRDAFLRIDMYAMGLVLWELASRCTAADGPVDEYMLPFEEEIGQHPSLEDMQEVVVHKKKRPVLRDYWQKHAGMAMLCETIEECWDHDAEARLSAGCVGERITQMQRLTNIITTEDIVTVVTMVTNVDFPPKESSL
# Sequence (chain, as listed by the source, chain 2 of 2): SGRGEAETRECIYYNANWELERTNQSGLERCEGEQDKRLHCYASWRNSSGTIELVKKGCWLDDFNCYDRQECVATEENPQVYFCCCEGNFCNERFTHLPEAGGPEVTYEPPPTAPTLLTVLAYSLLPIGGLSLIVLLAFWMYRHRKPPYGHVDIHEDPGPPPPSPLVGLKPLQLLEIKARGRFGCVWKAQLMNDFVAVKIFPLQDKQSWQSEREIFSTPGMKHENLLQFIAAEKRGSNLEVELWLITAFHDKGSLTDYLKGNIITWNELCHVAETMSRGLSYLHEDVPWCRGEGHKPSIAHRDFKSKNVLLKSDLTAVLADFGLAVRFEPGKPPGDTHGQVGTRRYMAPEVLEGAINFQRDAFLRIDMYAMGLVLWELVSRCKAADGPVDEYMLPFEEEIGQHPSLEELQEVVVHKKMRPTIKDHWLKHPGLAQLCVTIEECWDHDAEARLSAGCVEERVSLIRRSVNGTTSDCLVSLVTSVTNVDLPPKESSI
# EXPERIMENTAL_DETAILS: cell-based or functional assay
Give bare numbers, in nM.

Biiramooscht Fab (Fab, V domains shown, Fab) VH: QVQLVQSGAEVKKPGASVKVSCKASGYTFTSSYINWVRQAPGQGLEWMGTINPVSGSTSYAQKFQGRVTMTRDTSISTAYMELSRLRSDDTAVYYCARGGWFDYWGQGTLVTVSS VL: QSALTQPASVSGSPGQSITISCTGTSSDVGSYNYVNWYQQHPGKAPKLMIYGVSKRESGVSNRFSGSKSGNTASLTISGLQAEDEADYYCGTFAGGAYYGVFGGGTKLTVL :: 1.58

Below are 2 binders. Give each one its IC50, Activin SMAD RGA.
1. Bimagrumab Fab (Fab, V domains shown, Fab) VH: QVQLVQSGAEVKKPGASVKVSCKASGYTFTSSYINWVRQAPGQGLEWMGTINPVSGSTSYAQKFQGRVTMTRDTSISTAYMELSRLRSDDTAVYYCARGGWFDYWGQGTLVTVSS VL: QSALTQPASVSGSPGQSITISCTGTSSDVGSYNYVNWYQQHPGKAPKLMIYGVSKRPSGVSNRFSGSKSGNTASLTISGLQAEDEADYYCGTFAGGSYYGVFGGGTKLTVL
2. Duuranad Fab (Fab, V domains shown, Fab) VH: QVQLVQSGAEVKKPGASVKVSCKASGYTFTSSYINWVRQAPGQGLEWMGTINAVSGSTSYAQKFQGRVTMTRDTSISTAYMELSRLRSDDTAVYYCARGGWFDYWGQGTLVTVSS VL: QSALTQPASVSGSPGQSITISCTGTSSDVGSFNYVNWYQQHPGKAPKLMIRGVSKRESGVSNRFSGSKSGNTASLTISGLQAEDEADYYCGTFAGGAYYGVFGGGTKLTVL

4.39
6.19
